- ASSAY NOTES: Protein binding in dog plasma
TEST READOUT: fraction unbound
Reply with the value as a number alone.

Study these solved cases before continuing.
fraction unbound recorded for this compound, Cc1noc2c1-c1ccc(-c3cnn(C)c3)cc1N(c1ccc(C#N)cc1)CC2CC(N)=O (configuration not stated) , is 0.02

// sample Cc1noc2c1-c1ccc(-c3cnn(CC(N)=O)c3)cc1N(c1ccc(C#N)cc1)CC2C (configuration not stated) , its fraction unbound was 0.01

// Cc1nnc2n1-c1ccc(-c3ccc(N)nc3)cc1N(c1ccc(Cl)cc1)C[C@H]2C : fraction unbound value = 0.04

Lookup result for Cc1noc2c1-c1ccc(-c3ccc(=O)n(C)c3)cc1N(c1ccc(C#N)cc1)CC2C (configuration not stated) ; measured fraction unbound: 0.02

Entry Cc1nnc2n1-c1ccccc1N(c1ccc(Cl)cc1)CC2 , fraction unbound reported as 0.05

Recorded fraction unbound (compound Cc1nnc2n1-c1ccc(-c3cnn(C)c3)cc1N(c1ccc(Cl)cc1)CC2 ): 0.04

# compound Cc1nnc2n1-c1ccccc1N(c1ccc(Cl)cc1)CC2C (configuration not stated) ; its fraction unbound = 0.05

// fraction unbound lookup, compound = Cc1nnc2n1-c1ccc(-c3ccc(N)nc3)cc1N(c1ccc(Cl)cc1)CC2C (configuration not stated) , result: 0.03

Continuing:
response.value for CCNC(=O)CC1CN(c2ccc(Cl)cc2)c2ccccc2-n2c(C)nnc21 (configuration not stated) (field: fraction unbound) = 0.09

###

- ASSAY NOTES: Protein binding in rat plasma
- Type: ADME, cell-free
- CONDITIONS: read-out: PPB (converted)
Below, each entry is listed with its recorded fraction unbound.
Form rule: numeric answer, no unit written next to it.

Worked cases, answers included:
# fraction unbound of Cc1nnc2n1-c1ccccc1N(c1ccc(Cl)cc1)CC2 = 0.05

Record Cc1nnc2n1-c1ccc(-c3ccc(N)nc3)cc1N(c1ccc(Cl)cc1)CC2C (stereo not drawn) . Reported fraction unbound: 0.03

Proceeding to the next molecule to report its fraction unbound.
Reported fraction unbound ( Cc1nnc2n1-c1ccc(-c3ccc(N)nc3)cc1N(c1ccc(Cl)cc1)C[C@H]2C ) = 0.04

###

- ASSAY NOTES: Volume of distribution at steady state in rat at 1 mg/kg, iv
- Type: ADME, organism-based
- CONDITIONS: in vivo, read-out: Vdss
TEST READOUT: Vd (L/kg)
Enter your answer as a number in L/kg; do not include the unit.

Field Vd (entry Cc1nnc2n1-c1ccc(-c3ccc(N)nc3)cc1N(c1ccc(Cl)cc1)C[C@H]2C ) reads 2.2

###

- ASSAYED SYSTEM: Bromodomain-containing protein 9 (Homo sapiens, UniProt Q9H8M2)
- Sequence (Q9H8M2 whole entry): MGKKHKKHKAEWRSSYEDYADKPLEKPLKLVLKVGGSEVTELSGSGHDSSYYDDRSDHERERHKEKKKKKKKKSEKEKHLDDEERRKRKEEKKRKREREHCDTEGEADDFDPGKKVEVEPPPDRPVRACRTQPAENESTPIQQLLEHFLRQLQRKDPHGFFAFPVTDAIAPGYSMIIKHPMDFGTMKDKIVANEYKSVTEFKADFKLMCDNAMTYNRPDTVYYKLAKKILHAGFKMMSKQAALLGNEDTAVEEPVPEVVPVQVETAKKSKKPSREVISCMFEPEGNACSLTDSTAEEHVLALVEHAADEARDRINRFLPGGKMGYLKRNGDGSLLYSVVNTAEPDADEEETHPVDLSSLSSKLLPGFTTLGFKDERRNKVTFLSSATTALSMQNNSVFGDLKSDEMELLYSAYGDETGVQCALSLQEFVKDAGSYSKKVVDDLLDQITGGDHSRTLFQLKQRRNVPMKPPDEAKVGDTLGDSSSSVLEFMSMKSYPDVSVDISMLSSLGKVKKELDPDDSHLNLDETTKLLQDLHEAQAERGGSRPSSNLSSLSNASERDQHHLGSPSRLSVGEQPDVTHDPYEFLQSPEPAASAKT
- ASSAY NOTES: Inhibition of His-tagged BRD9 (unknown origin) using biotinylated acetylated peptide as substrate measured after 20 mins by AlphaLISA assay
TEST READOUT: IC50

Measured IC50 for this entry Cc1nnc2n1-c1ccc(-c3ccc(N)nc3)cc1N(c1ccc(Cl)cc1)C[C@H]2C on Bromodomain-containing protein 9 (Homo sapiens, UniProt Q9H8M2): > 15 µM

###

- ASSAYED SYSTEM: Nucleosome-remodeling factor subunit BPTF (Homo sapiens)
- ASSAY NOTES: Inhibition of BPTF (unknown origin) measured after 70 mins by TR-FRET assay
pIC50: −log10 of the molar value.
TEST READOUT: pIC50

Entry Cc1nnc2n1-c1ccc(-c3ccc(N)nc3)cc1N(c1ccc(Cl)cc1)C[C@H]2C , pIC50 reported as < 4.82

###

- ASSAYED SYSTEM: Bromodomain-containing protein 3 (Homo sapiens)
- Sequence (Q15059 whole entry): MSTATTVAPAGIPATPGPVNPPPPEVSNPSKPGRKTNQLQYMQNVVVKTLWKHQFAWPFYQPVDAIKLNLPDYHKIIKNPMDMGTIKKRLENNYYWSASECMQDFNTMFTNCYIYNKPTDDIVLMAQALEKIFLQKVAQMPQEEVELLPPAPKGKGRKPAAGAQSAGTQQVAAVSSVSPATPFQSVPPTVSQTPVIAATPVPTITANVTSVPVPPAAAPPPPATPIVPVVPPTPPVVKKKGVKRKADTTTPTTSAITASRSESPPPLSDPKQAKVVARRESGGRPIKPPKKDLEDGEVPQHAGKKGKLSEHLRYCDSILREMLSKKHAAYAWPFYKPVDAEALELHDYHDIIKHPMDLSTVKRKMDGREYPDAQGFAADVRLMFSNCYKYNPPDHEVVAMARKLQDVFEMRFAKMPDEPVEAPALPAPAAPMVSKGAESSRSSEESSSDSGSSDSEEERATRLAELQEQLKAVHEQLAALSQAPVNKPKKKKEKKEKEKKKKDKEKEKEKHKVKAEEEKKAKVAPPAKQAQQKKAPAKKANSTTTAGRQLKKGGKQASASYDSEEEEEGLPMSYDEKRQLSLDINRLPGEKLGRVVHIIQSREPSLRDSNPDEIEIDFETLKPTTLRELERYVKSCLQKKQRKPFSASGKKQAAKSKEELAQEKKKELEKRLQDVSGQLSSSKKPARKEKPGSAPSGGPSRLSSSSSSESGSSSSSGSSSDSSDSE
- ASSAY NOTES: Inhibition of BRD3 BD1 (unknown origin) using biotinylated JQ1 analog as substrate measured after 20 mins by AlphaLISA assay
TEST READOUT: IC50 (nM)
Reply numerically in nM, unit not repeated.

Sure, the documented IC50 for Cc1nnc2n1-c1ccc(-c3ccc(N)nc3)cc1N(c1ccc(Cl)cc1)C[C@H]2C is 3

###

// reported microsomal CLint for each item listed
- ASSAY NOTES: Intrinsic clearance in dog liver microsomes
Response body: numeric value in µL/min/mg, unit text excluded.

So, Cc1noc2c1-c1ccc(-c3ccc(N)nc3)cc1N(c1ccc(C#N)cc1)CC2C (configuration not stated) ? Its microsomal CLint was 240

The compound Cc1noc2c1-c1ccc(-c3cnn(CC(N)=O)c3)cc1N(c1ccc(C#N)cc1)CC2C (configuration not stated) showed microsomal CLint equal to 22

***
Notebook: Cc1noc2c1-c1ccccc1N(c1ccc(C#N)cc1)CC2 , microsomal CLint read as 18

###

- ASSAYED SYSTEM: Bromodomain-containing protein 1 (Homo sapiens, UniProt O95696)
- Sequence (O95696 whole entry): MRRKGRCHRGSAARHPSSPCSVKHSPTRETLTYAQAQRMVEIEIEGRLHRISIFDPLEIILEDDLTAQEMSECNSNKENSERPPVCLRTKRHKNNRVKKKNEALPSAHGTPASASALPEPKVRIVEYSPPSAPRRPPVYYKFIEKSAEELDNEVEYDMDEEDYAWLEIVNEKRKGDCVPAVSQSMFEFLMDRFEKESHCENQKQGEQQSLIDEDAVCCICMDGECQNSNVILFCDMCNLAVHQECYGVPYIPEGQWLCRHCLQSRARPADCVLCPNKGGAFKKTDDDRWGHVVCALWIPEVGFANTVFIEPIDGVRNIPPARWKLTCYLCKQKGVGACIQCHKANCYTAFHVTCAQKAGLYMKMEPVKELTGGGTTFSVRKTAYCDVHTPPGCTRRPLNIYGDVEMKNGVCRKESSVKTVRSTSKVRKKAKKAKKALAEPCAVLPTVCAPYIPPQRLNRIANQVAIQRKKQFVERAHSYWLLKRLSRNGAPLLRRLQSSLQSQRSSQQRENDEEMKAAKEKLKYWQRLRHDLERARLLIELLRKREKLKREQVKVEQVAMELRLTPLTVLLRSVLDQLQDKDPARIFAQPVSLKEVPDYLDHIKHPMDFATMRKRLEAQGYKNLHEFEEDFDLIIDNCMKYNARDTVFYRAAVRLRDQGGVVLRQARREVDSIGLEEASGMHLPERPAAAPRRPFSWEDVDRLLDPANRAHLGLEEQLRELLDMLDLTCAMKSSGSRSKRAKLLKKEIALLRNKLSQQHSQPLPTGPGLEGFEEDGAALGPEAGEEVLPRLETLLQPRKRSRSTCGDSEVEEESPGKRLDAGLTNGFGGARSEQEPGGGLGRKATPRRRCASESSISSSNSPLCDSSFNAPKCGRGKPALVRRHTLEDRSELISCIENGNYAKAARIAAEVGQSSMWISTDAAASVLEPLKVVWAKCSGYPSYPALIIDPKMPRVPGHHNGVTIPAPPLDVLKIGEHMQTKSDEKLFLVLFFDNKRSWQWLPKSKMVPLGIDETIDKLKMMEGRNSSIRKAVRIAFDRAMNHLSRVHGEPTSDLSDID
- ASSAY NOTES: Inhibition of BRD1 (unknown origin) measured after 70 mins by TR-FRET assay
TEST READOUT: IC50

Considering Cc1nnc2n1-c1ccc(-c3ccc(N)nc3)cc1N(c1ccc(Cl)cc1)C[C@H]2C , its IC50 with Bromodomain-containing protein 1 (Homo sapiens, UniProt O95696) was recorded as > 15 µM

###

- ASSAY NOTES: Intrinsic clearance in mouse liver microsomes
List of microsomal CLint values.
Answer format reminder: number followed by unit.

Entry Cc1nnc2n1-c1ccccc1N(c1ccc(Cl)cc1)CC2 ; microsomal CLint = 500 µL/min/mg

Cc1nnc2n1-c1ccc(-c3ccc(N)nc3)cc1N(c1ccc(Cl)cc1)C[C@H]2C has a reported microsomal CLint of 16 µL/min/mg

Measured microsomal CLint, Cc1noc2c1-c1ccc(-c3ccc(N)nc3)cc1N(c1ccc(C#N)cc1)CC2C (stereo not given) : 44 µL/min/mg

Others:
Sample Cc1noc2c1-c1ccc(-c3cnn(CC(N)=O)c3)cc1N(c1ccc(C#N)cc1)CC2C (stereo not given) ; microsomal CLint observed: 44 µL/min/mg

Item: Cc1nnc2n1-c1ccccc1N(c1ccc(Cl)cc1)CC2C (stereo not given) | microsomal CLint: 110 µL/min/mg

###

- ASSAYED SYSTEM: Peregrin (Homo sapiens, UniProt P55201)
- Sequence (P55201 whole entry): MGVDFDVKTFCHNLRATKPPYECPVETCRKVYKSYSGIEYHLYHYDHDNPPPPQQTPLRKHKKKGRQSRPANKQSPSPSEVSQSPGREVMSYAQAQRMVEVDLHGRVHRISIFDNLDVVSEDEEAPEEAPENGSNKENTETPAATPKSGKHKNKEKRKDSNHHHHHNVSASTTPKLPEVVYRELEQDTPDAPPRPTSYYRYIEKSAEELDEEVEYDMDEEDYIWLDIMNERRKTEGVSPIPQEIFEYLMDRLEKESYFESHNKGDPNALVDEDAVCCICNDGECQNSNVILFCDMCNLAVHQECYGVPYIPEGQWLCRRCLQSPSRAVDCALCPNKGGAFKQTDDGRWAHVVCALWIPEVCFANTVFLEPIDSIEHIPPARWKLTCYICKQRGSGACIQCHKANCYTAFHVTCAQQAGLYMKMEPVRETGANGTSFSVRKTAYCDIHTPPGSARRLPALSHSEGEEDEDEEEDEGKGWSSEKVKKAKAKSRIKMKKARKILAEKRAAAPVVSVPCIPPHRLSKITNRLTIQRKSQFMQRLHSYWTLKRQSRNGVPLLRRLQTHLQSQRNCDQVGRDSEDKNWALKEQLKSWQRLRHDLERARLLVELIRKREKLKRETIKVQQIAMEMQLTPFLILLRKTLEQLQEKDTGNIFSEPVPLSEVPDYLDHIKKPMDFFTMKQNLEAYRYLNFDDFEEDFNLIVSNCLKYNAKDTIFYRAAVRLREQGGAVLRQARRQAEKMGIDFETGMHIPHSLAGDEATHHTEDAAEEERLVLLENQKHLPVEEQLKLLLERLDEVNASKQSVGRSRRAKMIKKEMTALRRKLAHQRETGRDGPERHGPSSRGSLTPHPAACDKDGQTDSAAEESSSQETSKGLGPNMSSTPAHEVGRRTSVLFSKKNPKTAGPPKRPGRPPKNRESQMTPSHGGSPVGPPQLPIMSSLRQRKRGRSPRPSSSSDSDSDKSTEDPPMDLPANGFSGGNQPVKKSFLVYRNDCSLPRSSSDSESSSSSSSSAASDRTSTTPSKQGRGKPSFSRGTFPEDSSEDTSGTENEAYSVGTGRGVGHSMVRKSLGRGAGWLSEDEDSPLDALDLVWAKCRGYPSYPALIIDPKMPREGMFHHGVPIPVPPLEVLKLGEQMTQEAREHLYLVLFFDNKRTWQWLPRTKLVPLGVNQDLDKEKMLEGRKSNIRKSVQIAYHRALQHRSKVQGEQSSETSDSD
- ASSAY NOTES: Inhibition of BRPF1 (unknown origin) measured after 70 mins by TR-FRET assay
TEST READOUT: IC50

Item: Cc1nnc2n1-c1ccc(-c3ccc(N)nc3)cc1N(c1ccc(Cl)cc1)C[C@H]2C | IC50: > 15 µM

###

- ASSAY NOTES: Oral bioavailability in rat at 10 mg/kg
- Format: ADME, organism-based
- CONDITIONS: in vivo
TEST READOUT: bioavailability

# bioavailability (compound: Cc1nnc2n1-c1ccc(-c3ccc(N)nc3)cc1N(c1ccc(Cl)cc1)C[C@H]2C ) is 23%

The values you see were collected from ChEMBL document CHEMBL4715706.
